Test system: A549 NSCLC
protocol: NCI tumour cell line growth inhibition, 48 h; in the data active means GI50 below about 0.43 µM; inactive means the rest
Return exactly one item of active, inactive

Task item: Status in this test for CCC[CH2][Sn-]([CH2]CCC)([CH2]CCC)[O]C(=O)C(C)C ?
Reply: active

Task item: Hi, sorry to bother you, what did the test record for Cc1cccc(N2C(=O)/C(=C/C(Cl)=C/c3ccc([N+](=O)[O-])cc3)SC2=S)c1C ?
Reply: inactive

Task item: Please let me know the test result on file for O=S(=O)(NC1=NCCN1C(=S)SN1CCn2c1nsc2=S)c1ccc(Cl)cc1 .
Reply: inactive

Task item: Record request — test call for COc1cc2c(cc1OCCNC(=O)/C=C1\C[C@H]3C=Nc4cc(OCc5ccccc5)c(OC)cc4C(=O)N3C1)N=C[C@@H]1CCCN1C2=O
Reply: inactive

Task item: // return assay outcome for Cn1c(COC(=O)NCCc2ccccn2)nc2c(N3CCOCC3)nc(Cl)nc21
Reply: inactive

Task item: Per the records of this test, what outcome belongs to Cn1c(COC(=O)NCCn2ccnc2)nc2c(N3CCOCC3)nc(-c3ccccc3)nc21 ?
Reply: inactive

Task item: # fetch the recorded call for CC(C)C[C@@H](N)[C@@H](O)C(=O)N[C@H](C(=O)N[C@H](C(=O)N[C@@H](CC(=O)O)C(=O)O)C(C)C)C(C)C here
Reply: inactive

Task item: Recorded test call requested for O=C1c2cc3c(cc2-c2c1c1cc(F)c(F)cc1c(=O)n2CCCn1ccnc1)OCO3
Reply: active

Task item: Could you kindly confirm the outcome this assay logged for O=C(Nc1n[nH]c2cc(-c3cc(F)ccc3F)ccc12)C1CC1 ?
Reply: inactive

Task item: Give the logged outcome of this assay for the following compound: CC1=NN(c2cccc(Cl)c2)C(=O)/C1=C\c1cn(CC(O)CN2CCCCC2)c2ccccc12 (stereo not given)
Reply: inactive
